# Test system: human APOE RNA
# assay-text: Activity in APOE C57BL/6NTac-Apoeem7250 knock-in mice, single ICV bolus, 16 weeks (Example 12)
# Type: in vivo
# condition-context: cortex; single ICV bolus 300 μg; 16 weeks post treatment; normalized to mouse Ppia
Strand notation (5' to 3'): a small letter for the sugar, then the base; units joined by * are phosphorothioate-linked, units joined directly phosphodiester-linked; [ ] holds rarer units or linkages, { } end groups; capitals alone tell only the bases. [ms] = mesyl phosphoramidate linkage; e = 2'-O-(2-methoxyethyl) (MOE); k = constrained ethyl (cEt); [5mC] = 5-methylcytosine; d = 2'-deoxy (DNA)
Kindly note that classification relies on APOE RNA (% control) Cortex with these boundaries: class A = under 40 % control, class B = from 40 % control up to 80 % control, class C = 80 % control and over

Record excerpt, results attached:
Returns: class label. Input: 1757574 (eA*e[5mC]eTeT*eG*eG*dT*dG[ms]dA[ms]dA[ms]dT*d[5mC]*dT*dT*dT*dA[ms]kT*kT*eA*eA; antisense) [Compound 1757574]
class B

Returns: class label. Input: 1693070: 5-10-5 MOE gapmer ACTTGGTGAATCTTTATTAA, linkages ssssssszzzszsssosss (antisense eA*e[5mC]*eT*eT*eG*dG*dT*dG[ms]dA[ms]dA[ms]dT*d[5mC][ms]dT*dT*dT*eAeT*eT*eA*eA) [compound 1693070]
class C

Returns: class label. Input: 1778111: modified oligonucleotide complementary to human APOE RNA (eA*e[5mC]eTeTeG*kG*dT*dG[ms]dA[ms]dA*dT*d[5mC]*dT*dT*dT*dA[ms]eTeT*eA*eA; antisense) [compound 1778111]
class B

Returns: class label. Input: 1652901: 6-10-4 MOE gapmer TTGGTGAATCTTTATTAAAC, linkages sooooossssssssssoss (antisense eT*eTeGeGeTeGdA*dA*dT*d[5mC]*dT*dT*dT*dA*dT*dT*eAeA*eA*e[5mC]) [compound 1652901]
class C

Returns: class label. Input: 1736535 (e[5mC]*eT*eT*eG*eGkT*dG[ms]dA[ms]dA[ms]dT*d[5mC]*dT*dT*dT*dA[ms]dT*eT*eA*eA*eA; antisense) [Compound 1736535]
class B

Returns: class label. Input: 1736536 (e[5mC]*eT*eT*eG*kGkT*dG[ms]dA[ms]dA[ms]dT*d[5mC]*dT*dT*dT*dA[ms]dT*eT*eA*eA*eA; antisense) [Compound 1736536]
class A

Returns: class label. Input: 1778126 (eA*e[5mC]eTeTkG*kG*dT*dG[ms]dA[ms]dA*dT*d[5mC]*dT*dT*dT*dA[ms]kT*eT*eA*eA; antisense) [Compound 1778126]
class A

Kindly review the next substance as well.
Returns: class label. Input: 1757575 (eA*e[5mC]eTeT*kG*kG*dT*dG[ms]dA[ms]dA[ms]dT*d[5mC]*dT*dT*dT*dA[ms]kT*eT*eA*eA; antisense) [Compound 1757575]
class A

---

# Test system: human APOE RNA
# assay-text: Dose-dependent reduction of human APOE RNA in HepG2 cells, electroporation, 20,000 cells per well, average of GAPDH- and PPIA-normalized results (Example 4, Table 12)
# Format: cell-based
# condition-context: 33 nM, HepG2, 20,000 cells per well
Strand notation (5' to 3'): a small letter for the sugar, then the base; units joined by * are phosphorothioate-linked, units joined directly phosphodiester-linked; [ ] holds rarer units or linkages, { } end groups; capitals alone tell only the bases. [ms] = mesyl phosphoramidate linkage; e = 2'-O-(2-methoxyethyl) (MOE); k = constrained ethyl (cEt); [5mC] = 5-methylcytosine; d = 2'-deoxy (DNA)
The entries below are paired with their reported APOE RNA (% UTC).
Provide the reading as a plain figure in % UTC.

Some entries whose results are on file:
Reported APOE RNA (% UTC), substance 1778111: modified oligonucleotide complementary to human APOE RNA (eA*e[5mC]eTeTeG*kG*dT*dG[ms]dA[ms]dA*dT*d[5mC]*dT*dT*dT*dA[ms]eTeT*eA*eA; antisense) [compound 1778111] : ____
91

Reported APOE RNA (% UTC), substance 1785599: modified oligonucleotide complementary to human APOE RNA (k[5mC]*kT*kT*dG[ms]dG[ms]dT[ms]dG[ms]dA[ms]dA[ms]dT[ms]d[5mC]*dT*dT*dT*dA*dT*kT*kA*dA[ms]kA; antisense) [compound 1785599] : ____
93

Reported APOE RNA (% UTC), substance Aes^mCeoTeoTesGesGksTdsGdzAdzAdzTds^mCdsTdsTdsTdsAdzTksTksAesAe (eA*e[5mC]eTeT*eG*kG*dT*dG[ms]dA[ms]dA[ms]dT*d[5mC]*dT*dT*dT*dA[ms]kT*kT*eA*eA) [Compound No. 1757576] : ____
83

New cases:
Reported APOE RNA (% UTC), substance 1778130: modified oligonucleotide complementary to human APOE RNA (eA*e[5mC]eTeTeG*kG*dT*dG[ms]dA[ms]dA*dT*d[5mC]*dT*dT*dT*dA[ms]kTkT*eA*eA; antisense) [compound 1778130] : ____
85

Reported APOE RNA (% UTC), substance 1785598: modified oligonucleotide complementary to human APOE RNA (k[5mC]*kT*kT*dG[ms]dG[ms]dT[ms]dG[ms]dA[ms]dA[ms]dT*d[5mC]*dT*dT*dT*dA*dT[ms]kT*kA*dA[ms]kA; antisense) [compound 1785598] : ____
88

Reported APOE RNA (% UTC), substance 1778128: modified oligonucleotide complementary to human APOE RNA (eA*e[5mC]eTeTkGkG*dT*dG[ms]dA[ms]dA*dT*d[5mC]*dT*dT*dT*dA[ms]kTeT*eA*eA; antisense) [compound 1778128] : ____
83

Reported APOE RNA (% UTC), substance ^mCksTksTksGdzGdzTdzGdzAdzAdzTds^mCdsTdsTdsTdsAdsTdsTksAksAdzAk (antisense k[5mC]*kT*kT*dG[ms]dG[ms]dT[ms]dG[ms]dA[ms]dA[ms]dT*d[5mC]*dT*dT*dT*dA*dT*kT*kA*dA[ms]kA) [Compound No. 1785602] : ____
85

Reported APOE RNA (% UTC), substance 1746809 (k[5mC]*dT[ms]kT*dG[ms]kG*dT[ms]dG[ms]dA[ms]dA[ms]dT*d[5mC]*dT*dT*dT*dA[ms]dT*dT[ms]kA*kA*kA; antisense) [Compound 1746809] : ____
86

---

# Test system: human APOE RNA
# assay-text: Dose-dependent inhibition of human APOE RNA in differentiated SH-SY5Y cells, free uptake, 5 days (Example 5)
# Type: cell-based
# condition-context: 13 nM, 5 days (Table 14)
Strand notation (5' to 3'): a small letter for the sugar, then the base; units joined by * are phosphorothioate-linked, units joined directly phosphodiester-linked; [ ] holds rarer units or linkages, { } end groups; capitals alone tell only the bases. [ms] = mesyl phosphoramidate linkage; e = 2'-O-(2-methoxyethyl) (MOE); k = constrained ethyl (cEt); [5mC] = 5-methylcytosine; d = 2'-deoxy (DNA)
The entries below are paired with their reported APOE RNA (% UTC).
Provide the reading as a plain figure in % UTC.

Reported APOE RNA (% UTC), substance 1778130: modified oligonucleotide complementary to human APOE RNA (eA*e[5mC]eTeTeG*kG*dT*dG[ms]dA[ms]dA*dT*d[5mC]*dT*dT*dT*dA[ms]kTkT*eA*eA; antisense) [compound 1778130] : ____
75

Now consider the entry below.
Reported APOE RNA (% UTC), substance 1778131: modified oligonucleotide complementary to human APOE RNA (eA*e[5mC]eTeTeGkG*dT*dG[ms]dA[ms]dA*dT*d[5mC]*dT*dT*dT*dA[ms]kTkT*eA*eA; antisense) [compound 1778131] : ____
103

---

The entries below are paired with their reported APOE RNA (% control) Spinal Cord.
# Tested on: human APOE RNA
# assay-text: Activity in APOE C57BL/6NTac-Apoeem7250 knock-in mice, single ICV bolus, 4 weeks (Example 10)
# Format: in vivo
# condition-context: Spinal Cord; C57BL/6NTac-Apoeem7250 knock-in mice, single ICV bolus 300 μg, 4 weeks (Table 22)
Strand notation (5' to 3'): a small letter for the sugar, then the base; units joined by * are phosphorothioate-linked, units joined directly phosphodiester-linked; [ ] holds rarer units or linkages, { } end groups; capitals alone tell only the bases. [ms] = mesyl phosphoramidate linkage; e = 2'-O-(2-methoxyethyl) (MOE); k = constrained ethyl (cEt); [5mC] = 5-methylcytosine; d = 2'-deoxy (DNA)
Provide the reading as a plain figure in % control.

Reported APOE RNA (% control) Spinal Cord, substance 1736535 (e[5mC]*eT*eT*eG*eGkT*dG[ms]dA[ms]dA[ms]dT*d[5mC]*dT*dT*dT*dA[ms]dT*eT*eA*eA*eA; antisense) [Compound 1736535] : ____
63

Reported APOE RNA (% control) Spinal Cord, substance 1693101: 6-10-4 MOE gapmer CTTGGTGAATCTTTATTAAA, linkages sssssozzzssssszssss (e[5mC]*eT*eT*eG*eG*eTdG[ms]dA[ms]dA[ms]dT*d[5mC]*dT*dT*dT*dA[ms]dT*eT*eA*eA*eA) [compound 1693101] : ____
77

Reported APOE RNA (% control) Spinal Cord, substance 1736531 (e[5mC]*eT*eT*eG*eG*kTdG[ms]dA[ms]dA[ms]dT*d[5mC]*dT*dT*dT*dA[ms]dT*eT*eA*eA*eA; antisense) [Compound 1736531] : ____
52

Reported APOE RNA (% control) Spinal Cord, substance 1736529 (e[5mC]*eT*eT*eG*eG*eTdG[ms]dA[ms]dA[ms]dT*d[5mC]*dT*dT*dT*dA[ms]dT*kT*kA*eA*eA; antisense) [Compound 1736529] : ____
46

Now consider the entry below.
Reported APOE RNA (% control) Spinal Cord, substance 1736533 (e[5mC]*eT*eT*eG*eGeT*dG[ms]dA[ms]dA[ms]dT*d[5mC]*dT*dT*dT*dA[ms]dT*kT*eA*eA*eA; antisense) [Compound 1736533] : ____
54
